Molecular target: T1, TerR43-138 (Aspergillus terreus SBUG844, UniProt Q0D1P5 43-138)
T1 sequence: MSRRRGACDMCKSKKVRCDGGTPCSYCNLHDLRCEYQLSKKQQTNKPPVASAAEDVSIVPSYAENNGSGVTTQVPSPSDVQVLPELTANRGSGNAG
Test: SPR; molar ratio 0.95; SPR (Biacore 2000, SA-coated CM3 chip): 10 mM HEPES pH 7.4, 150 mM NaCl, 0.005% P20, 5 mM beta-mercaptoethanol, 1 uM ZnCl2, 25 C; protein 12.5-6400 nM; 1:1 model with mass transport
Details: protein: recombinant; (pET-29a; mass used 10218 Da); label: biotin on one strand; 18 bp duplex
recorded-endpoint: pKd
pKd (log units): -log10 of the concentration in mol/L.

So what does the record say about pKd for BS4m1 (TT before 5'-CGG to GG) (dsDNA) DNA 1: TGGGCGGCAATACGGACT DNA 2: AGTCCGTATTGCCGCCCA ?
5.03
